target: EPHB2 (UniProt P29323); assay: phosphorylation enrichment, bacterial display (enrichment ratio); higher = better substrate or ligand; peptides without Tyr show the background;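 further: 11-residue human phosphosite peptides and single-mutation variants displayed on the E. coli surface, counted by deep sequencing, each peptide's frequency after selection divided by its frequency in the unselected input library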;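 further: frequency after pTyr selection over input frequency; kinase dosed for 20-30% of maximal phosphorylation in three min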
Sequence (P29323 whole entry, looked up): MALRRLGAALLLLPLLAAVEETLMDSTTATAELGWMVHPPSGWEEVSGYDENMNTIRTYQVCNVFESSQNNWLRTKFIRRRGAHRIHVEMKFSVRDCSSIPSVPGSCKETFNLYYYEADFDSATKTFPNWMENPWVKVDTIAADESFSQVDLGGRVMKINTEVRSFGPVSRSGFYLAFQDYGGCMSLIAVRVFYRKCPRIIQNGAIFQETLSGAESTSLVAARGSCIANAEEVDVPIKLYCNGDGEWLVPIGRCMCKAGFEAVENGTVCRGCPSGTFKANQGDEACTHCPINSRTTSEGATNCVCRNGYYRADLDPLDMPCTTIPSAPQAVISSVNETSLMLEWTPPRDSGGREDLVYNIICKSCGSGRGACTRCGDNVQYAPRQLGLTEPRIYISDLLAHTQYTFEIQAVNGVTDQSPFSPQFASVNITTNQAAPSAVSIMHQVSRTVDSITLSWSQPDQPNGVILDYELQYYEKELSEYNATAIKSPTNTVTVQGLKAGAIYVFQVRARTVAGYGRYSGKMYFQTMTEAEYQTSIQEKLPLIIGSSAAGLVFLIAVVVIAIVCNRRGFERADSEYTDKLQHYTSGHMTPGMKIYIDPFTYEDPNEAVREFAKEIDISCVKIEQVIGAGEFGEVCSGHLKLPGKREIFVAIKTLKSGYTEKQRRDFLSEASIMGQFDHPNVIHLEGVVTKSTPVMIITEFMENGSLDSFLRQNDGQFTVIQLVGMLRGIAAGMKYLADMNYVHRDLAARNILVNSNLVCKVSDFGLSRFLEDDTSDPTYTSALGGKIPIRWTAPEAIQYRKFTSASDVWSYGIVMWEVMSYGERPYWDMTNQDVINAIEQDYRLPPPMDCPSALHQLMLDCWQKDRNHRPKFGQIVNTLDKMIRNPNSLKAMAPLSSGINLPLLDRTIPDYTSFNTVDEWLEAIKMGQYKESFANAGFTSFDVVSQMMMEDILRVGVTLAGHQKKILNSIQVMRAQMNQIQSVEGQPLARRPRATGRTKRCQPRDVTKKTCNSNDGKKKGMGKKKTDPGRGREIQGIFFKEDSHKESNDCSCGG
Returns True if the recorded phosphorylation enrichment is greater than or equal to 0.6, and False otherwise.

- Input sequence: "DTCPPYVLSQV [GJB4_Y237_G242V]"
  Group label: "True"
- Input sequence: "FIAVGYVDDTQ [HLA-A_Y51]"
  Group label: "False"
- Input sequence: "DENWFYTQAAS [RPS19_Y54_R56Q]"
  Group label: "True"
- Input sequence: "TSFQMYDKGLV [IARS2_Y231_F227S_YF]"
  Group label: "True"
- Input sequence: "HNLDFYKQTTN [FGFR3_Y648_K650Q_YF]"
  Group label: "False"
- Input sequence: "FHKALYTVRTY [PDE6C_Y266_S270T]"
  Group label: "True"
- Input sequence: "KEELAYLKKNH [KRT14_Y248]"
  Group label: "False"
- Input sequence: "VGIMLYGVDSR [PKD1_Y3143]"
  Group label: "True"

* * *

Parameter phosphorylation enrichment: see the listing below.
molecular target: EPHB2 (UniProt P29323); test: phosphorylation enrichment, bacterial display (enrichment ratio); higher = better substrate or ligand; peptides without Tyr show the background
Measured endpoint: phosphorylation enrichment

- Input sequence: "LHVKMYNFLRS [ADGRG7_Y760_R756H]"
  System name: "EPHB2 (UniProt P29323)"
  Result value: 0.778
- Input sequence: "VEQIHYIGQNE [HMOX2_Y140_R137Q]"
  System name: "EPHB2 (UniProt P29323)"
  Result value: 0.396
- Input sequence: "KASGKYYAMKI [AKT3_Y173]"
  System name: "EPHB2 (UniProt P29323)"
  Result value: 0.411

* * *

Entries annotated with measured phosphorylation enrichment
system: AncSZ; assay: phosphorylation enrichment, bacterial display (enrichment ratio); higher = better substrate or ligand; peptides without Tyr show the background

- Input sequence: "TRSFDYMEGED [FGF7_Y58_G62E_YF]"
  phosphorylation enrichment: 1.41
- Input sequence: "GQRDLYSGLNQ [CD3E_Y199]"
  phosphorylation enrichment: 1.11
- Input sequence: "GPCKAYELSQR [SETX_Y1297_R1294C]"
  phosphorylation enrichment: 0.735
- Input sequence: "RAVLLYEFVGK [NATD1_Y45_YF]"
  phosphorylation enrichment: 2.71
- Input sequence: "LREIRYQGGNR [VWF_Y1570_V1565L]"
  phosphorylation enrichment: 0.796
- Input sequence: "YLRTGYSIPYG [TGM1_Y370_V372I]"
  phosphorylation enrichment: 0.777
- Input sequence: "ATHSRYRLNDF [CLDN14_Y233_G232R_YF]"
  phosphorylation enrichment: 0.419
- Input sequence: "YTGSTYRVGDT [FN1_Y106_N104S]"
  phosphorylation enrichment: 0.72
- Input sequence: "APTSGYQEFVH [IL4R_Y575]"
  phosphorylation enrichment: 0.741
- Input sequence: "KDIENHIQDGK [RAD50_Y964_Y964H]"
  phosphorylation enrichment: 0.69

* * *

target: Fes (UniProt P07332); test: phosphorylation enrichment, bacterial display (enrichment ratio); higher = better substrate or ligand; peptides without Tyr show the background
Sequence (P07332 whole entry, looked up): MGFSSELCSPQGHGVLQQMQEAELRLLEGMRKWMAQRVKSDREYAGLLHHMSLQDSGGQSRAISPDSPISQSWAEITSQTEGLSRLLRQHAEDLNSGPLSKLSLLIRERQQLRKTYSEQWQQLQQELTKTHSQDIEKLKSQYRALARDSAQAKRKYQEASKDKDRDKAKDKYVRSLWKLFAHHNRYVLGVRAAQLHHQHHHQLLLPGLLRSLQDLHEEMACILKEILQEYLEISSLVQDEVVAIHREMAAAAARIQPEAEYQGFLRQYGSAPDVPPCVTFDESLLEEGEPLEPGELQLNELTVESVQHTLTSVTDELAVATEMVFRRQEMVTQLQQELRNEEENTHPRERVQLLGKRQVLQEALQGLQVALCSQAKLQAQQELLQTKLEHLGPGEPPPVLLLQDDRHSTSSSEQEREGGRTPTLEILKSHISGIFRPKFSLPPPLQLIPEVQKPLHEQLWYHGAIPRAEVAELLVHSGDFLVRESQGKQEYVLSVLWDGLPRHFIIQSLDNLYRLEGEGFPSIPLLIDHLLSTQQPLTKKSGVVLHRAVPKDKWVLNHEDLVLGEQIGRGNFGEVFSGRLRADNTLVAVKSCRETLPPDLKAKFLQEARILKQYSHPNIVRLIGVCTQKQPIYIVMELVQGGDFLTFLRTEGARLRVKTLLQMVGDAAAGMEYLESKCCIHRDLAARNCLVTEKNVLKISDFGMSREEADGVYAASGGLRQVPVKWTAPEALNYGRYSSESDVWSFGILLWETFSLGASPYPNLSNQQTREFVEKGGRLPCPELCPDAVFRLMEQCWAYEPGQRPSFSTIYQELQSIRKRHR
Answer N if phosphorylation enrichment is under 1, and Y if it is 1 or more.

- Input sequence: "RRQDLYSARDL [SART1_Y249]"
  Group label: "N"
- Input sequence: "TVLEPYADPYY [ZC3H18_Y367]"
  Group label: "Y"
- Input sequence: "GPQSLYNGLVA [UCP2_Y79_R76Q]"
  Group label: "N"
- Input sequence: "GASWRYRSGVS [NEU1_Y242_G243R]"
  Group label: "N"
- Input sequence: "GILDVYIFLGP [GAA_Y340]"
  Group label: "Y"
- Input sequence: "CTIIHYNFMCN [TP53_Y234_T231I_YF]"
  Group label: "Y"
- Input sequence: "RGFDTYFGFLL [ARSB_Y165_YF]"
  Group label: "Y"
- Input sequence: "RLVTRYIFNRE [HLA-DQB1_Y62_Y58L_YF]"
  Group label: "N"
- Input sequence: "KYWREYILSLE [GPC3_Y299]"
  Group label: "Y"
- Input sequence: "FGLDRYQCDCT [PTGS1_Y54]"
  Group label: "Y"
- Input sequence: "CPYNLYAAQLS [HGD_Y40_E42A]"
  Group label: "Y"
- Input sequence: "FSCLPYRRLAF [SLC52A2_Y305_G306R_YF]"
  Group label: "N"
- Input sequence: "YDKEYYSVHNK [MET_Y1235]"
  Group label: "N"
- Input sequence: "QRDSSYYWEIE [RAF1_Y340]"
  Group label: "Y"
- Input sequence: "GFAIVYGTIIL [GPR179_Y460]"
  Group label: "Y"
- Input sequence: "TFHNTYHSQMR [IL1RAPL1_Y615]"
  Group label: "N"
- Input sequence: "QMVDMYASSYM [AVPR2_Y124_G122D]"
  Group label: "Y"
- Input sequence: "LECEWYKNGVK [TTN_Y2112_P2107L]"
  Group label: "Y"
- Input sequence: "VRRVGYVSGWG [HP_Y280_G276R]"
  Group label: "N"

* * *

biological target: Fyn (UniProt P06241); assay: phosphorylation enrichment, bacterial display (enrichment ratio); higher = better substrate or ligand; peptides without Tyr show the background
Sequence (P06241 whole entry, looked up): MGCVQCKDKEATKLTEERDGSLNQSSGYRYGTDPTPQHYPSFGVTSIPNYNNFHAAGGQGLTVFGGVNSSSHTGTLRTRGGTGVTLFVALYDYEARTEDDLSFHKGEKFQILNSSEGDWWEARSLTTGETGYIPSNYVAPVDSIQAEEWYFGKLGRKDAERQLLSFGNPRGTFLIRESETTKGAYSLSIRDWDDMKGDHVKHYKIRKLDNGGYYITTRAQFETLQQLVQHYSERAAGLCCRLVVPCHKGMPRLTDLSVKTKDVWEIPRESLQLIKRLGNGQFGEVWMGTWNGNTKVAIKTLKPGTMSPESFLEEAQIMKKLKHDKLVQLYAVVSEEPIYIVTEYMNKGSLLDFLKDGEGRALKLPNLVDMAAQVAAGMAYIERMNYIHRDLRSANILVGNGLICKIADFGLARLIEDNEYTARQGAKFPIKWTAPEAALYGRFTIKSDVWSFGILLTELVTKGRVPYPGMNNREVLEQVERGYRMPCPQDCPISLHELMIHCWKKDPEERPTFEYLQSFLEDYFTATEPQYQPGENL
Tag: MET if measured phosphorylation enrichment is not below 0.8, NOT MET if it is.

- Input sequence: "IRTDAYVQAMT [RPE65_Y89_R91Q]"
  System name: "Fyn (UniProt P06241)"
  Group label: "NOT MET"
- Input sequence: "HESEIYCKVCF [CSRP3_Y57_YF]"
  System name: "Fyn (UniProt P06241)"
  Group label: "MET"
- Input sequence: "FFRNVYHLASV [RBL1_Y796_K794N_YF]"
  System name: "Fyn (UniProt P06241)"
  Group label: "MET"
- Input sequence: "SGPRRYTVAAL [TTR_Y125_I127V]"
  System name: "Fyn (UniProt P06241)"
  Group label: "NOT MET"
- Input sequence: "GTQGSYLLSRK [UGT3A1_Y123_C121G]"
  System name: "Fyn (UniProt P06241)"
  Group label: "NOT MET"
- Input sequence: "PVRIAYGRPRG [SUGP2_Y985_D986G]"
  System name: "Fyn (UniProt P06241)"
  Group label: "NOT MET"
- Input sequence: "NDKLRYEVSSP [CDH13_Y66]"
  System name: "Fyn (UniProt P06241)"
  Group label: "NOT MET"
- Input sequence: "LFLACYFIGGG [UBD_Y161_C162F]"
  System name: "Fyn (UniProt P06241)"
  Group label: "NOT MET"
- Input sequence: "PEPHIYAVADV [MYO9A_Y216_L211P]"
  System name: "Fyn (UniProt P06241)"
  Group label: "MET"
- Input sequence: "LREIRYQGGNR [VWF_Y1570_V1565L]"
  System name: "Fyn (UniProt P06241)"
  Group label: "NOT MET"
- Input sequence: "YEREQYADRTR [RBM4_Y355_A359T]"
  System name: "Fyn (UniProt P06241)"
  Group label: "NOT MET"
- Input sequence: "GGTTLYPGIAD [ACTC1_Y308_M307L]"
  System name: "Fyn (UniProt P06241)"
  Group label: "NOT MET"
- Input sequence: "TYGNLYGSRKQ [YIPF7_Y59_A54T]"
  System name: "Fyn (UniProt P06241)"
  Group label: "MET"
- Input sequence: "IFKAAYFGVFD [SLC25A4_Y191_R188K_YF]"
  System name: "Fyn (UniProt P06241)"
  Group label: "NOT MET"
- Input sequence: "AQINLYQDVML [ZNF806_Y33]"
  System name: "Fyn (UniProt P06241)"
  Group label: "MET"
- Input sequence: "SQSAKYDMAED [TTC21B_Y1213_I1208S]"
  System name: "Fyn (UniProt P06241)"
  Group label: "NOT MET"

* * *

Some sequences, each annotated with its measured phosphorylation enrichment.
system: AncSZ; test: phosphorylation enrichment, bacterial display (enrichment ratio); higher = better substrate or ligand; peptides without Tyr show the background

- Input sequence: "WQQQSYLDFGI [CTNNB1_Y30_S33F]"
  phosphorylation enrichment: 0.883
- Input sequence: "DVCKNYTEAKD [ALB_Y343_A344T]"
  phosphorylation enrichment: 0.92
- Input sequence: "PVQAAYRKVVA [HBB_Y131_Q132R]"
  phosphorylation enrichment: 0.502
- Input sequence: "TKLKDYFIFNK [CCDC42_Y149_A144T_YF]"
  phosphorylation enrichment: 0.685
- Input sequence: "LNTFHHAGVSA [POLR2A_Y1109_Y1109H]"
  phosphorylation enrichment: 0.884
- Input sequence: "PEPHIYAVADV [MYO9A_Y216_L211P]"
  phosphorylation enrichment: 1.11
- Input sequence: "AVNDFYAAKKT [CCDC178_Y422]"
  phosphorylation enrichment: 0.629
- Input sequence: "DLVSEYQQYQD [TUBB3_Y422]"
  phosphorylation enrichment: 1.57
- Input sequence: "YSMGCYEISLG [HMGCL_Y198]"
  phosphorylation enrichment: 2.12
